- testedSystem: Beta-lactoglobulin (Bos taurus, UniProt P02754)
- Sequence (P02754 whole entry): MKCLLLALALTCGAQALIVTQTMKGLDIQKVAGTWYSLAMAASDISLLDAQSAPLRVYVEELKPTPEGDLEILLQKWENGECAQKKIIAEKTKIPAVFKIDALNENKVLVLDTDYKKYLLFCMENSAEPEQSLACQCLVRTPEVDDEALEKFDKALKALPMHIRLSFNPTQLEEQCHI
- experimentalDetails: Binding affinity to bovine beta-lactoglobulin at 300 K after 10 mins by fluorescence assay
- Format: ADME
- assayContext: cattle
metricName: Kb (M⁻¹)
Expressed in M⁻¹, but write only the number.

Challenge: Item under review: CCCCCC1=C/C(=C\c2[nH]c(-c3ccc[nH]3)cc2OC)N=C1C . Reported Kb?
Response given: 19900

* * *

- testedSystem: Beta-lactoglobulin (Bos taurus, UniProt P02754)
- Sequence (P02754 whole entry): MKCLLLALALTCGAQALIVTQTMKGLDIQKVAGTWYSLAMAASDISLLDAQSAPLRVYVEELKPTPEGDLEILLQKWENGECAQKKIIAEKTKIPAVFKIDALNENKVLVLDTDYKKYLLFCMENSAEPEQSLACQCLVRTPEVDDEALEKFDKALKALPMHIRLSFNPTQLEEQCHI
- experimentalDetails: Binding affinity to bovine beta-lactoglobulin at 290 K after 10 mins by fluorescence assay
- Type: ADME
- assayContext: cattle
metricName: Kb (M⁻¹)
Write the answer as a number in M⁻¹, unit excluded.

Challenge: Which Kb is reported for this compound? CCCCCC1=C/C(=C\c2[nH]c(-c3ccc[nH]3)cc2OC)N=C1C
Response given: 12500

* * *

- testedSystem: Albumin (Homo sapiens, UniProt P02768)
- Sequence (P02768 whole entry): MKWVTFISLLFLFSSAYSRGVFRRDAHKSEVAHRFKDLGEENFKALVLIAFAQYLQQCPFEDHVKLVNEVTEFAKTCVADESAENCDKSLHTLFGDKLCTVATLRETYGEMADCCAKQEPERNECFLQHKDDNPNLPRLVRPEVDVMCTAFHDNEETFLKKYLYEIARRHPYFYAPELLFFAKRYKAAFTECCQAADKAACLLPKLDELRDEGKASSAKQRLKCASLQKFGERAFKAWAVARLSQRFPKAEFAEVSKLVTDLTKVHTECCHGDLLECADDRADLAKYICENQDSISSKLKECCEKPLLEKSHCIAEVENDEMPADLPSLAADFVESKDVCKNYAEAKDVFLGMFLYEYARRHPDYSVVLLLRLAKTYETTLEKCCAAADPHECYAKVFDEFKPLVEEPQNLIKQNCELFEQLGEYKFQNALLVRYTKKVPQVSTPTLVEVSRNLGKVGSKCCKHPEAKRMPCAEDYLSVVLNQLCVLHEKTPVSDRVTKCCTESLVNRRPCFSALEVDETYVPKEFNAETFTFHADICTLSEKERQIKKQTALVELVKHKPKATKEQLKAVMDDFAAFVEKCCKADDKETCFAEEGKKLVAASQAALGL
- experimentalDetails: Binding affinity to human serum albumin at 290 K after 10 mins by fluorescence assay
- Format: ADME
- assayContext: isolated protein
metricName: Kb (M⁻¹)
Expressed in M⁻¹, but write only the number.

Challenge: Look up Kb for this compound: CCCCCC1=C/C(=C\c2[nH]c(-c3ccc[nH]3)cc2OC)N=C1C
Response given: 48400

* * *

- testedSystem: Albumin (Homo sapiens, UniProt P02768)
- experimentalDetails: Binding affinity to human serum albumin at 310 K after 10 mins by fluorescence assay
- Format: ADME
- assayContext: isolated protein
metricName: Kb

Challenge: So what's the measured Kb for this one? CCCCCC1=C/C(=C\c2[nH]c(-c3ccc[nH]3)cc2OC)N=C1C
Response given: 34000 M⁻¹

* * *

- testedSystem: UniProtKB P02768
- experimentalDetails: Binding affinity to human serum albumin at 300 K after 10 mins by fluorescence assay
- Assay type: ADME
- assayContext: isolated protein
metricName: Kb (M⁻¹)
Report as a plain number; the unit M⁻¹ is understood.

Challenge: Give its Kb value. Item: CCCCCC1=C/C(=C\c2[nH]c(-c3ccc[nH]3)cc2OC)N=C1C
Response given: 44100

Source of measurements: ChEMBL document CHEMBL3769334
